Could you please report measured Ratio IC50 for the items listed next?
species on record: Homo sapiens; experiment: selectivity ratio of IC50 for human 11beta-HSD2 to IC50 for human 11beta-HSD1

// below: answered molecules
>  <SMILES_NOTATION>
C=C1[C@H]2C[C@H](O)[C@H]3[C@]4(C)CCC[C@@](C)(NC(=O)Nc5ccccc5)[C@H]4CC[C@]3(C2)[C@@H]1O

>  <ASSAY_RESULT>
> 10600

$$$$
>  <SMILES_NOTATION>
C=C1[C@H]2C[C@H](OC(C)=O)[C@H]3[C@]4(C)CCC[C@@](C)(C(=O)O)[C@H]4CC[C@]3(C2)[C@@H]1O

>  <ASSAY_RESULT>
1970

$$$$

In the following, a different molecule is considered.
INPUT: Fill in Ratio IC50 for record C=C1C[C@@]23CC[C@H]4[C@@](C)(CCC[C@@]4(C)NC(=O)NC45CC6CC(CC(C6)C4)C5)[C@@H]2CC[C@H]1C3
OUTPUT: > 246
